Hi there, I'd appreciate the recorded apparent KD of MS2 coat protein for every entry that follows.
Test system: MS2 coat protein
experimentNotes: apparent KD of MS2 coat protein; higher = weaker reporter binding
conditionSummary: Eterna round: R107; input ligand: theophylline 20 uM
Record the value in nM, omitting the unit from your answer.

Ask: Specify apparent KD of MS2 coat protein for AACAUGAGGAUCACCCAUGUCCCAUGUGAACGAGGACCGGUACGGCCGCCACUCGACCGAGGCGGCACAUGAGGAUCACCCACAU [whbob_SS_trypto A_2s13] and stop.
Result: 278

Ask: Specify apparent KD of MS2 coat protein for CGCAAGCAACAUGAGGAUCACCCAUGUGAAGGAGCGCCGAAUAAGGCAGGUAGGUCGCACAUGAAUAAAUCAUGUAAAAGCUUGC [MAT - Exclusion Arginine A - Mod of Eli - D22] and stop.
Result: 52.9

Ask: Specify apparent KD of MS2 coat protein for ACAUGAAGAACAGCGGUGGGCGCGCUCGAUACCAGUAUUUUAAACUACCCUUGGCAGCGACAUGAGGAUCACCCAUGUGAGAUGA [XTheo A #6] and stop.
Result: 21.8

Ask: Specify apparent KD of MS2 coat protein for UUGUUGUUUGGAAGGAGCGUGUAAGAUUAAGAACAUGAGGAUCACCCAUGUUUUAAGGGAGCACAGGUAGGUCGCCGGGUGGUGG [11.S] and stop.
Result: 31.5

Ask: Specify apparent KD of MS2 coat protein for GCAUCCUAGUCGGCCGCCACUGCAUGUAGGCAGUGCUGCUACAAACAUGAGGAUCACCCAUGUAGCAGGACCGGGACUAGGAUGC [(Trp1)-(MT2)''-(T1)'-(MT2)'-(Ms2)-(Trp2)_Design2] and stop.
Result: 18.5

Ask: Specify apparent KD of MS2 coat protein for GCUACAUGAGGAUCACCCAUGUGUACUGAAGGAGCGGCGGAAACGCCAGGUAGGUCGCAGUAUGUGGCUCUGGGCACGAGAAAGC [SSAA NP+V+V2 #2] and stop.
Result: 28.3

Data credit: the supplement of paper PMC9170038
